EXPERIMENTAL_TARGET: STK10 (Homo sapiens, UniProt O94804)
Sequence (O94804 36-294 limits assumed): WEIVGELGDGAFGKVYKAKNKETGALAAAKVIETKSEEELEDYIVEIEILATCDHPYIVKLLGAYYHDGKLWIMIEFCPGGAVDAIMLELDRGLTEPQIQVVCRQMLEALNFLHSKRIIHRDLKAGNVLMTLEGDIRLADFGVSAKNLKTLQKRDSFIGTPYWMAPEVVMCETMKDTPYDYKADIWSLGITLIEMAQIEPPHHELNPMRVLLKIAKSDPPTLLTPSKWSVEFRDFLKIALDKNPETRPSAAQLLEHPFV
ASSAY: biochemical
ENDPOINT_NAME: log10(Ki) (log10 of the value in nM)

MOLECULE	ENDPOINT_RESULT
COc1cc(Nc2c(C#N)cnc3ccc(Cl)cc23)cc(OC)c1OC [compound 44, 44]	4.41
COc1cc(Nc2c(C#N)cnc3ccc(S(C)(=O)=O)cc23)cc(OC)c1OC [compound 49, 49]	3.18
COc1cc(Nc2c(C#N)cnc3ccccc23)cc(OC)c1OC [compound 43, 43]	3.67
COc1cc(Nc2c(C#N)cnc3cc(I)ccc23)cc(OC)c1OC [compound 52, 52]	2.30
COc1cc(Nc2c(C#N)cnc3ccc(I)cc23)cc(OC)c1OC [compound 46, 46]	3.62
COc1ccc2c(Nc3cc(OC)c(OC)c(OC)c3)c(C#N)cnc2c1 [compound 53, 53]	3.08
COc1cc(Nc2c(C#N)cnc3cc(Cl)ccc23)cc(OC)c1OC [compound 50, 50]	2.90
COc1ccc2ncc(C#N)c(Nc3cc(OC)c(OC)c(OC)c3)c2c1 [compound 47, 47]	3.28
COc1cc(Nc2c(C#N)cnc3cc(Br)ccc23)cc(OC)c1OC [compound 51, 51]	2.64

---

EXPERIMENTAL_TARGET: STK10 (Homo sapiens, UniProt O94804)
ASSAY: biochemical
pKi: −log10 of the molar value.
// reported pKi for each item listed
ENDPOINT_NAME: pKi

COMPOUND	EXPERIMENTAL_TARGET	ENDPOINT_RESULT
C#Cc1cccc(Nc2ncnc3ccc(C#N)cc23)c1 [compound 68, 68]	STK10 (Homo sapiens, UniProt O94804)	5.33
C#Cc1cccc(Nc2ncnc3ccc(F)cc23)c1 [compound 56, 56]	STK10 (Homo sapiens, UniProt O94804)	5.26
C#Cc1cccc(Nc2ncnc3cc(C(F)(F)F)ccc23)c1 [compound 66, 66]	STK10 (Homo sapiens, UniProt O94804)	6.00
C#Cc1cccc(Nc2ncnc3cc(Cl)ccc23)c1 [compound 63, 63]	STK10 (Homo sapiens, UniProt O94804)	6.36

---

// values below are reported IC50
EXPERIMENTAL_TARGET: full length GAK protein N-terminally fused with NanoLuc luciferase (Homo sapiens, UniProt O14976)
Sequence (O14976 2-1311): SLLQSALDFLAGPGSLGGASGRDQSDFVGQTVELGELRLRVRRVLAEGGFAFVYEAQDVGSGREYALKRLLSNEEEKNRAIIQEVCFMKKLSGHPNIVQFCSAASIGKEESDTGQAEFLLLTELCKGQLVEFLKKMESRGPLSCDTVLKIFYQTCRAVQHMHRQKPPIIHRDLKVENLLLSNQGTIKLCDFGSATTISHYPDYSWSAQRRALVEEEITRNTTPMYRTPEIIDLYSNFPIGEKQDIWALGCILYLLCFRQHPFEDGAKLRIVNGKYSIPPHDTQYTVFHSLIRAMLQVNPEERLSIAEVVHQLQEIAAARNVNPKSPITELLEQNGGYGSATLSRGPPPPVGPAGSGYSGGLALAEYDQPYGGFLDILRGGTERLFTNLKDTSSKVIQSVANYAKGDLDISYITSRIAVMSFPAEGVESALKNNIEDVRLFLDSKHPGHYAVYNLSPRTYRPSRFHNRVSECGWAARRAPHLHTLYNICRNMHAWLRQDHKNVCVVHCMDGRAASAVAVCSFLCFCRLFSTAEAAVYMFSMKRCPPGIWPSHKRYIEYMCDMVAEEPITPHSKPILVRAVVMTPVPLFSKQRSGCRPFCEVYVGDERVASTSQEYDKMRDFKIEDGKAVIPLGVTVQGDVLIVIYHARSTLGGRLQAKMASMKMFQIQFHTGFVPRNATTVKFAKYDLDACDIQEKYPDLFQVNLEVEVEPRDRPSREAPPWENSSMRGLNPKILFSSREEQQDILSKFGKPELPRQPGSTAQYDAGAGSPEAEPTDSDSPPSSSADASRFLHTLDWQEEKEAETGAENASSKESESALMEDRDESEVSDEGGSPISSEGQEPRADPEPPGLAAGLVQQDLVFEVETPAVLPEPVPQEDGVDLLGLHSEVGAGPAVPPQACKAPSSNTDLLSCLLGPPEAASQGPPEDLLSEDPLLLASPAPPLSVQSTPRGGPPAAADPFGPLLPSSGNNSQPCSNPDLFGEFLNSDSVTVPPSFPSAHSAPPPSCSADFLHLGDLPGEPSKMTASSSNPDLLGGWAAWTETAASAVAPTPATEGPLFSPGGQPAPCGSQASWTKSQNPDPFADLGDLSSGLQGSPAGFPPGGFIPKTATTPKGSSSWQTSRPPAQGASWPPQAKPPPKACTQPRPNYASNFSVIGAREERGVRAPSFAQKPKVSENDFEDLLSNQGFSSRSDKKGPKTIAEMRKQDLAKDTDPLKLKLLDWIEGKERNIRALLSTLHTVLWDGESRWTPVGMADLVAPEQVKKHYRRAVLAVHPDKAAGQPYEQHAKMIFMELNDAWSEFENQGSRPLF
ASSAY: cell-based
Set-up: species or system HEK293T

ITEM_SMILES	OUTPUT_UNIT	OPERATOR_SYMBOL	IC50
Brc1cccc(Nc2ccnc3ccc(Br)cc23)c1	µM	>	5
Fc1ccccc1Nc1ccnc2ccc(Br)cc12	µM	=	2.6
Fc1cccc(Nc2ccnc3ccc(Br)cc23)c1	µM	=	1.9
Fc1ccc(Nc2ccnc3ccc(Br)cc23)cc1F	µM	>	5
Fc1ccc(Nc2ccnc3ccc(Br)cc23)cc1	µM	=	0.94
Fc1cc(F)cc(Nc2ccnc3ccc(Br)cc23)c1	µM	>	5
Fc1ccc(Nc2ncnc3ccc(Br)cc23)cc1	µM	>	5
Fc1cc(Nc2ccnc3ccc(Br)cc23)cc(F)c1F	µM	=	4.4
Brc1cccc(Nc2ncnc3ccc(Br)cc23)c1	µM	>	5

---

Overview of recorded Ki for various molecules
EXPERIMENTAL_TARGET: GAK (Homo sapiens, UniProt O14976)
Sequence (O14976 12-347 limits assumed): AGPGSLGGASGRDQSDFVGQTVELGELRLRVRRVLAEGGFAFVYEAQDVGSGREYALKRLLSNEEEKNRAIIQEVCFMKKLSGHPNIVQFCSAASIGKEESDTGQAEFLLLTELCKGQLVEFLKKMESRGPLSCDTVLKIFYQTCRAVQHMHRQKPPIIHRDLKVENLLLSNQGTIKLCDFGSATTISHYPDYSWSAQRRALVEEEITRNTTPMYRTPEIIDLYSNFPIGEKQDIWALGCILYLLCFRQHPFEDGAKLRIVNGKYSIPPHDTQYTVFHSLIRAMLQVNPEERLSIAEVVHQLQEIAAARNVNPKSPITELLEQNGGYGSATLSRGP
ASSAY: biochemical
ENDPOINT_NAME: Ki (µM)

MOLECULE	EXPERIMENTAL_TARGET	ENDPOINT_RESULT
C#Cc1cccc(Nc2c(C#N)cnc3ccc(S(C)(=O)=O)cc23)c1 [compound 80, 80]	GAK (Homo sapiens, UniProt O14976)	0.18
C#Cc1cccc(Nc2c(C#N)cnc3ccc(I)cc23)c1 [compound 79, 79]	GAK (Homo sapiens, UniProt O14976)	0.02
C#Cc1cccc(Nc2c(C#N)cnc3ccc(Br)cc23)c1 [compound 78, 78]	GAK (Homo sapiens, UniProt O14976)	0.017
C#Cc1cccc(Nc2c(C#N)cnc3cc(Cl)ccc23)c1 [compound 84, 84]	GAK (Homo sapiens, UniProt O14976)	0.028
C#Cc1cccc(Nc2c(C#N)cnc3ccccc23)c1 [compound 75, 75]	GAK (Homo sapiens, UniProt O14976)	0.018
C#Cc1cccc(Nc2c(C#N)cnc3cc(I)ccc23)c1 [compound 86]	GAK (Homo sapiens, UniProt O14976)	0.019
C#Cc1cccc(Nc2c(C#N)cnc3cc(Br)ccc23)c1 [compound 85, 85]	GAK (Homo sapiens, UniProt O14976)	0.027
C#Cc1cccc(Nc2c(C#N)cnc3ccc(Cl)cc23)c1 [compound 77, 77]	GAK (Homo sapiens, UniProt O14976)	0.016
C#Cc1cccc(Nc2c(C#N)cnc3ccc(F)cc23)c1 [compound 76, 76]	GAK (Homo sapiens, UniProt O14976)	0.026

Taken from paper doi:10.1101/757047v1.
